The reported numbers originate from paper PMC10895674.

ASSAY COMMENT: Pharmacokinetics IV and PO
Parameters: species or system Rat
SETTINGS: in vivo; Rat IV 2 mg/kg, 0.25 hr; read-out: Drug Conc. Avg.

{"STRUCTURE AS SMILES": "CCN(c1cc(-c2cccc(N(C)C(=O)c3cc(C(C)C)c(O)cc3O)c2)cc(C(=O)NCc2c(C)cc(C)[nH]c2=O)c1C)C1CCOCC1", "concentration at 0.25 hr, ng/mL": 406}

###

Record set of IC50 for target or system UniProt P07900.

{"STRUCTURE AS SMILES": "CCN(C(=O)c1cc(C(C)C)c(O)cc1O)c1cccc(-c2cc(C(=O)NCc3c(C)cc(C)[nH]c3=O)c(C)c(N(CC)C3CCOCC3)c2)c1", "UNIT ABBREV": "µM", "IC50": 0.0636}
{"STRUCTURE AS SMILES": "CCCN(C(=O)c1cc(C(C)C)c(O)cc1O)c1cccc(-c2cc(C(=O)NCc3c(C)cc(C)[nH]c3=O)c(C)c(N(CC)C3CCOCC3)c2)c1", "UNIT ABBREV": "µM", "IC50": 9.33}
{"STRUCTURE AS SMILES": "CCN(c1cc(-c2cccc(N(C)C(=O)c3cc(C(C)C)c(O)cc3O)c2)cc(C(=O)NCc2c(C)cc(C)[nH]c2=O)c1C)C1CCOCC1", "UNIT ABBREV": "µM", "IC50": 0.0601}
{"STRUCTURE AS SMILES": "CCN(c1cc(-c2ccc(N(C)C(=O)c3cc(C(C)C)c(O)cc3O)cc2)cc(C(=O)NCc2c(C)cc(C)[nH]c2=O)c1C)C1CCOCC1", "UNIT ABBREV": "µM", "IC50": 0.343}
{"STRUCTURE AS SMILES": "CCN(c1cc(-c2cccc(N(Cc3ccccc3)C(=O)c3cc(C(C)C)c(O)cc3O)c2)cc(C(=O)NCc2c(C)cc(C)[nH]c2=O)c1C)C1CCOCC1", "UNIT ABBREV": "µM", "IC50": 2.84}

###

ASSAY COMMENT: Pharmacokinetics IV and PO
Set-up: species or system Rat
SETTINGS: in vivo; Rat IV 2 mg/kg, 0.08 hr; read-out: Drug Conc. Avg.
RESULT TYPE: concentration at 0.08 hr (ng/mL)

{"STRUCTURE AS SMILES": "CCN(c1cc(-c2cccc(N(C)C(=O)c3cc(C(C)C)c(O)cc3O)c2)cc(C(=O)NCc2c(C)cc(C)[nH]c2=O)c1C)C1CCOCC1", "RESULT TYPE": "concentration at 0.08 hr", "UNIT ABBREV": "ng/mL", "ENDPOINT RESULT": 929}

###

ASSAY COMMENT: Pharmacokinetics IV and PO
Design: species or system Rat
SETTINGS: in vivo; Rat PO 20 mg/kg, 1 hr; read-out: Drug Conc. Avg.

{"COMPOUND": "CCN(c1cc(-c2cccc(N(C)C(=O)c3cc(C(C)C)c(O)cc3O)c2)cc(C(=O)NCc2c(C)cc(C)[nH]c2=O)c1C)C1CCOCC1 [Compound 7]", "concentration at 1 hr [ng/mL]": 23.8}

###

ASSAY COMMENT: Pharmacokinetics IV and PO
Parameters: species or system Rat
SETTINGS: in vivo; Rat PO, dose 20 mg/kg

{"STRUCTURE AS SMILES": "CCN(c1cc(-c2cccc(N(C)C(=O)c3cc(C(C)C)c(O)cc3O)c2)cc(C(=O)NCc2c(C)cc(C)[nH]c2=O)c1C)C1CCOCC1", "AUC(0-inf) [ng·h/mL]": 106}
